# method-description: basal RPMI8226 viability, no added stimulus, profiling panel, cell-based, calcein-AM fluorescence, 48 h, PK04 Diversity Set (AID 1166);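 further: cells grown under basal conditions without added stimulus; test concentration not given here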
# condition-details: RPMI8226 myeloma viability, higher = more signal

{"molecule": "C=CCC(OC(C)=O)[C@@H]1[C@@H](N(Cc2ccc(-c3cccc(C(F)(F)F)c3)o2)C(=O)c2ccc(C)cc2)c2cc(OCCCO)ccc2N1C(=O)Cc1ccc(OC)cc1 (stereo not given in full)", "z-score": 0.002}
{"molecule": "C=C(CCCC)C(=O)CC[C@H](OC(=O)c1ccccc1-c1ccccc1C(=O)O)c1ccccc1OCCO", "z-score": -3.85}
{"molecule": "[N-]=[N+]=NCc1ccccc1[C@@H]1OC(c2ccc(OCCCO)cc2)=N[C@]1(Cc1ccccc1N=[N+]=[N-])C(=O)N1CCCCC1", "z-score": -3.75}
{"molecule": "C=C(C)[C@@H]1CC=C(C(O)C2C=CC3C(=O)N(c4ccccc4)C(=O)C3N2Nc2ccc(C#N)cc2)CC1 (stereo not given in full)", "z-score": 0.0001}
{"molecule": "O=C(NCC(O)CO)[C@@]1(CCS(=O)(=O)c2ccccc2)COC(c2ccc(OCCCO)cc2)=N1 (stereo not given in full)", "z-score": -0.187}
{"molecule": "[N-]=[N+]=NCc1ccccc1[C@@H]1OC(c2ccc(OCCCO)cc2)=N[C@]1(Cc1ccccc1N=[N+]=[N-])C(=O)NCCN1CCOCC1", "z-score": -1.09}
{"molecule": "CCOC(=O)C=Cc1ccccc1O", "z-score": -0.529}
{"molecule": "C#C[C@@H](CC)O[Si](C#CCCCC#N)(C(C)C)C(C)C", "z-score": -0.501}
{"molecule": "O=C1OCC=C[C@H]2OC34C=CCN(c5ccc6ccccc6c5)C(=O)[C@H]3N(CCCCCO)C(=O)[C@@H]4[C@@H]12 (stereo not given in full)", "z-score": 0.0725}
{"molecule": "CC(CO)N1C(=O)[C@@H]2[C@H]3C(=O)OCC=C[C@H]3OC23C=CCN(c2ccc(Cl)cc2)C(=O)[C@@H]13 (stereo not given in full)", "z-score": -0.485}
{"molecule": "CC(C)C[C@@H]1NC(=O)[C@H]2C[C@@H](C(=O)NCCCCCN)[C@@H](c3cccc(OCCO)c3)N2C1=O", "z-score": -0.0687}
{"molecule": "CC(C)[C@H]1NC(=O)[C@@]23C(=O)N[C@@H](Cc4ccccc4)C2[C@H](C)[C@@]2(C)O[C@H]2C3/C=C/CCC/C=C/CNC(=O)[C@H](Cc2ccccc2)NC1=O (stereo not given in full)", "z-score": -1.6}
{"molecule": "[N-]=[N+]=Nc1ccccc1C[C@]1(C(=O)NCc2ccccc2)COC(c2ccc(OCCCO)cc2)=N1", "z-score": -4.42}
{"molecule": "COc1ccc([Si](C)(C)[C@H]2[C@H](CCO)O[C@@]3(C(=O)N(Cc4ccccc4)c4ccc(N5C(=O)c6ccccc6Oc6ccccc65)cc43)[C@@H]2C)cc1", "z-score": -3.51}
{"molecule": "CN(C)CCCC[C@@H]1NC(=O)[C@@H]2C[C@H](C(=O)O)[C@H](c3cccc(OCCO)c3)N2C1=O", "z-score": 0.312}
{"molecule": "Cc1cccc([C@H]2C[C@H]3C(I)=C[C@@H]2C(=O)[C@]32CO2)c1", "z-score": -3.12}
{"molecule": "COCCOC(=O)N1C(=O)[C@@]2(c3cc(C#CC4=CCCCC4)ccc31)[C@H](C(=O)N1CCCCCCC1)[C@H]1C(=O)O[C@H](c3ccccc3)[C@H](c3ccccc3)N1[C@@H]2c1ccc(OCCO)cc1", "z-score": -0.779}
{"molecule": "C=C(COC)C(=O)CC[C@@H](OC(=O)c1cccnc1)c1ccccc1OCCO", "z-score": -3.82}
{"molecule": "CN1C=C(C(=O)OCCS(C)(=O)=O)C(C(=O)OCCS(C)(=O)=O)=CC(c2ccc(CO)cc2)=CC1c1cccs1 (stereo not given)", "z-score": -1.1}
{"molecule": "O=C(O)[C@H]1C[C@H]2C(=O)N[C@@H](Cc3ccccc3)C(=O)N2[C@H]1c1cccc(OCCO)c1", "z-score": -0.958}
{"molecule": "O=C1C[C@@](C(=O)NCc2ccccc2)(c2ccc([N+](=O)[O-])cc2)[C@@H](c2ccc(CO)cc2I)N1CC12CC3CC(CC(C3)C1)C2", "z-score": -4.33}
{"molecule": "CN(C)C(=O)[C@@]1(Cc2ccccc2)COC(c2ccc(OCCCO)cc2)=N1", "z-score": 0.726}
{"molecule": "Cc1ccc(C(C)CC(O)C2C=CC3C(=O)N(c4ccccc4)C(=O)C3N2Nc2ccc(C#N)cc2)o1 (stereo not given)", "z-score": -0.355}
{"molecule": "O=C(N1CCOCC1)[C@@]1(CCS(=O)(=O)c2ccccc2)N=C(c2ccc(OCCCO)cc2)O[C@H]1c1ccccc1", "z-score": 0.614}
{"molecule": "O=C1N[C@@H](Cc2ccccc2)C(=O)N2[C@@H]1C[C@@H](C(=O)O)[C@H]2c1ccc(O)cc1", "z-score": 0.293}
{"molecule": "NC(=O)[C@@H]1[C@H]2C(=O)O[C@H](c3ccccc3)[C@H](c3ccccc3)N2[C@H](c2ccc(OCCO)cc2)[C@@]12C(=O)Nc1ccc(C#CCCO)cc12", "z-score": 0.698}
{"molecule": "CCOC(=O)C1=C[C@@H](C(C)(C)C)N(S(=O)(=O)c2ccc(C)cc2)[C@H]1c1ccccc1", "z-score": -3.35}
{"molecule": "CC(C)C[C@@H]1NC(=O)CNC(=O)[C@@]23C(=O)N[C@@H](Cc4ccccc4)C2[C@H](C)[C@@]2(C)O[C@H]2C3/C=C/C/C=C\\CNC1=O (stereo not given in full)", "z-score": -0.939}
{"molecule": "C=CC1c2cc(O)c(OC)cc2CCN1Cc1ccc([N+](=O)[O-])o1 (stereo not given)", "z-score": 0.413}
{"molecule": "CC(=O)NCCCC[C@@H]1NC(=O)[C@@H]2C[C@H](C(=O)NCCCCCCN)[C@H](c3cccc(OCCO)c3)N2C1=O", "z-score": -0.413}
